Just for reference, the supplement of paper PMC9170038 is where these values come from.

Reported apparent KD of MS2 coat protein by item:
# Test system: MS2 coat protein
# measurementNotes: apparent KD of MS2 coat protein; designed switch direction (-1 OFF switch, 1 ON switch): -1; higher = weaker reporter binding
# details: input ligand: FMN 200 uM

# sequenceInput, targetEntity, apparent KD of MS2 coat protein, nM
rows = [
    ("CCGCUACAUGAGGAUCACCCAUGUCAGGAUAUCGUACGUUCGUCGAUAGACGAUCGUACGAGAAGGGUGUGCGG [Mat - Exclusion 1 - Eli Mod - D36] (Eterna round: R97, puzzle: Exclusion 1)", "MS2 coat protein", 81.4),
    ("CUCCAGCAAGGAUAUACAUAGUGACGUCUGUUUAAUCUUAAACAUGAGGAUCACCCAUGUAGAAGGUGCGUCAC [Biqugeza] (Eterna round: R97, puzzle: Exclusion 2)", "MS2 coat protein", 19.4),
    ("UUUCAUCAUGUAGGAUAUGUGUGGCGAAGCUAUACAGAAGGACAUGAGGAUCACCCAUGUUCUUGCGUCUGCGUACAGAUGCAA [14th something] (Eterna round: R96, puzzle: Exclusion NG 1)", "MS2 coat protein", 348),
    ("GUGGCACAUGAGGAUCACCCAUGUCAGGAUAUCGCGUGGUUUUUUUCGGCCGCGCGCGCGAGAAGGGACGUCUU (Eterna round: R96, puzzle: Exclusion 1)", "MS2 coat protein", 26.8),
    ("GAUUAGGUAGGAUAUACGUAGUGAGCCAGCGAGAGCUGGUAACAUGAGGAUCACCCAUGUAGAAGGACCAUUAA [Xeorqulaus] (Eterna round: R97, puzzle: Exclusion 2)", "MS2 coat protein", 145),
    ("UCUUUAUUUGUGAGGAUAUCGAUAAAAUGGAUUGUCGAGAAGGCACAUGAGGAUCACCCAUGUGUGGAACAGCA [JR_BMEx4_Sub024] (Eterna round: R97, puzzle: Brourd's mod of Exclusion 4)", "MS2 coat protein", 54.8),
    ("AAUUCACAAGCGAGAUCCCACAUGAGGAUCACCCAUGUGCUCGUCUUAUAAGGUACUGUGACGAGAGUCACGGUACC [Mat - Sensor, turn-off var - Eli Mod - D88] (Eterna round: R97, puzzle: Sensor, turn-off variant 1)", "MS2 coat protein", 15.7),
    ("AACCUGAGGCUUUGCUUUAGGUAUACAUGAGGAUCACCCAUGUAGGAUAUGGUAGGCUUUGCUUACCAGAAGGACAUGUUAAUU [JL ENG3 1.10] (Eterna round: R96, puzzle: Exclusion NG 3)", "MS2 coat protein", 136),
    ("UUAAUUAAUUUAUUAGAUCCUCACAUGAGGAUCACCCAUGUGCAGGAUAUCAGCUCGUUUAGAGCUGAGAAGGGCACUAUAAAU [ExNG3/10-B2] (Eterna round: R96, puzzle: Exclusion NG 3)", "MS2 coat protein", 24.6),
]

* * *

# Tested on: MS2 coat protein
# measurementNotes: apparent KD of MS2 coat protein; designed switch direction (-1 OFF switch, 1 ON switch): -1; higher = weaker reporter binding
# details: Eterna round: R95; input ligand: none
Reported apparent KD of MS2 coat protein by item:
measurementLabel: apparent KD of MS2 coat protein (µM)

# sequenceInput, measurementLabel, observedResult
rows = [
    ("AUGUGGGUAAGAAGGUGAAGAUAGAGCGUACGUUAUGGAACAUGAGGAUCACCCAUGUAGCUUUUUGCUCGUCUUAU [JR_SV3TOV2_Sub033] (puzzle: Sensor v3, turn-off variant 2)", "apparent KD of MS2 coat protein", 0.0182),
    ("GCCAGAGCAGGAUAUUCAGUAUCACACAUGAGGAUCACCCAUGUCCAGCGAAAGCUGGAGGGAGAAGGGCUCUGGC [Fiskers Ex 5 - 13] (puzzle: Exclusion 5)", "apparent KD of MS2 coat protein", 0.298),
    ("ACAAGCUCUUUGCAUCUUAGUUUUGUUGCUUCGUAUGUAACAUGAGGAUCACCCAUGUAAGACUGAUGUCGUCUUUU [JR_SV3TOV2_Sub087] (puzzle: Sensor v3, turn-off variant 2)", "apparent KD of MS2 coat protein", 0.0482),
    ("GUUAGACAUGAGGAUCACCCAUGUGAGGAUAUGAUGAGAAUGAAGUAAGAAGUAGGAAUCAGAAGGCACAUAUG [Mat - Mod of Hyphema D31] (puzzle: Exclusion 1)", "apparent KD of MS2 coat protein", 0.132),
    ("AUAAUUUAAGUGAGGAUAUACCUAUGGAAACAUAGGUAGAAGGCACAUGAGGAUCACCCAUGUUCCUAUACAAA [Fiskers BMX 4 - 1] (puzzle: Brourd's mod of Exclusion 4)", "apparent KD of MS2 coat protein", 0.00908),
]
